# Lookup of reported pIC50 keyed by entry
measured-target: hNR2B (Homo sapiens, UniProt Q05586+Q13224)
Construct: expressed in transfected cells; host or cells: Xenopus laevis oocytes, cRNA-injected
Sequence (Q13224 27-1484, other chains not shown): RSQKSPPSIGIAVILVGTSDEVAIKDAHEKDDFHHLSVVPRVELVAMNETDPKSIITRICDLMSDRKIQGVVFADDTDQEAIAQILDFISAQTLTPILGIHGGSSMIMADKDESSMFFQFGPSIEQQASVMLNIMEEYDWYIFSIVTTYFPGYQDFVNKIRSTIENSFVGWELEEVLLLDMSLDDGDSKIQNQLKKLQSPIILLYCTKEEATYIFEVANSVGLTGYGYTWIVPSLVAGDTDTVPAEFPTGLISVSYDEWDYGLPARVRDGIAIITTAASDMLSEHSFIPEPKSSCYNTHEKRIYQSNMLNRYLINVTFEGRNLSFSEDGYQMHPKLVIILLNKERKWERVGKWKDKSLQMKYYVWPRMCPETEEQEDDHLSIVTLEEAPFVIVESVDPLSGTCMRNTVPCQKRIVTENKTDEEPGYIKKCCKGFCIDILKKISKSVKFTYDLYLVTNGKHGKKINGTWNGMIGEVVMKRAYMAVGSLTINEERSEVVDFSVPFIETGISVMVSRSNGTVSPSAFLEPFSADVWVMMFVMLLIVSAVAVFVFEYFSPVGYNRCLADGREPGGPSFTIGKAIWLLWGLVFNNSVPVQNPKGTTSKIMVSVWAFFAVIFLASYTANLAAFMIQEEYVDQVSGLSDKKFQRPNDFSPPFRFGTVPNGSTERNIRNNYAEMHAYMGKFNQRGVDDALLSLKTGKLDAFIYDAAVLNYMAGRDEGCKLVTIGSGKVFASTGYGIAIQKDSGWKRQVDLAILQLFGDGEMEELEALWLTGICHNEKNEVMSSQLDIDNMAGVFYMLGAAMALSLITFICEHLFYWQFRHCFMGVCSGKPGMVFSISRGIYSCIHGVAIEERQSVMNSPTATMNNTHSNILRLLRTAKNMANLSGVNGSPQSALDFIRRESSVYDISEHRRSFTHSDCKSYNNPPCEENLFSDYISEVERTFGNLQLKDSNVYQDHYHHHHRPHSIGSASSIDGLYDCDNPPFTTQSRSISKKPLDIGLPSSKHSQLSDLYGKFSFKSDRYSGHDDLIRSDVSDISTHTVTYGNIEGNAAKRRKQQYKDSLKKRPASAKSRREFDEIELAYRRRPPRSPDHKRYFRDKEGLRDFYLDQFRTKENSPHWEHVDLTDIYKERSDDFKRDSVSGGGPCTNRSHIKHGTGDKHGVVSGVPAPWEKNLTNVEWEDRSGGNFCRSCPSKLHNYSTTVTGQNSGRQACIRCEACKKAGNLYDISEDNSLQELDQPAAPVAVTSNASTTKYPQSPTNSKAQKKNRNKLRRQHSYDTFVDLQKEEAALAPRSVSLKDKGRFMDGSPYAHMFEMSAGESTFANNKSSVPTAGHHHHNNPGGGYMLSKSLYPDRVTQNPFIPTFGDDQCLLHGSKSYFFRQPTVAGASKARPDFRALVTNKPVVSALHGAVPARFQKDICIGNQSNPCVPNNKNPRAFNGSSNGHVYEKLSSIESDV
assay-info: Electrophysiology NMDA receptor experiments: two electrode voltage-clamp in Xenopus laevis oocytes, hNR2B IC50
Type: cell-based
condition: hNR2B activity class, 50 μM glutamate, 30 μM glycine, read-out: Activity
pIC50: −log10 of the molar value.

Look over these answered cases.
1. CS(=O)(=O)Nc1ccc(OCc2nnc(Nc3ccc(Cl)c(Cl)c3)o2)cc1    > 6.70
2. O=C1CCc2cc(CCc3nnc(Nc4ccc(OC(F)(F)F)cc4)o3)ccc2N1    > 6.70
3. O=c1cnc2cc(OCc3nnc(Nc4ccc(Cl)c(Cl)c4)o3)ccc2[nH]1    5.00 to 6.00
4. Cc1ccc(Nc2nnc(COc3ccc4[nH]c(=O)ccc4c3)o2)cc1F    > 6.70
5. Cc1cccc(CNc2nnc(COc3ccc4[nH]c(=O)ccc4c3)o2)c1    6.00 to 6.70
6. Oc1ccc(CCc2nc(Nc3ccc(OC(F)(F)F)cc3)no2)cc1    6.00 to 6.70
7. O=C1Nc2ccc(OCc3nnc(Nc4ccc(Cl)c(Cl)c4)o3)cc2CO1    > 6.70
8. O=c1ccc2cc(OCc3nnc(Nc4cccc(F)c4)o3)ccc2[nH]1    5.00 to 6.00

Could you now look at the following compound, please?
*Q* # lookup: pIC50 of Oc1cccc(Cc2nnc(NCc3ccc(Cl)c(Cl)c3)o2)c1
*A* < 5.00

###

measured-target: hNR2B (Homo sapiens, UniProt Q05586+Q13224)
Construct: expressed in transfected cells; host or cells: Xenopus laevis oocytes, cRNA-injected
assay-info: Electrophysiology NMDA receptor experiments: two electrode voltage-clamp in Xenopus laevis oocytes, hNR2B IC50
Assay type: cell-based
condition: voltage clamp -40 mV, 50 μM glutamate, 30 μM glycine, read-out: hNR2B IC50
observed-property: IC50 (nM)

Look over these answered cases.
1) O=c1ccc2cc(C3CC3c3nnc(Nc4ccc(C(F)(F)F)cc4)o3)ccc2[nH]1 (stereo not drawn)    9.5
2) O=C1CCc2cc(OCc3nc(Nc4ccc(Cl)c(Cl)c4)no3)ccc2N1    390
3) O=c1ccc2cc(OCc3nnc(Nc4ccc(Cl)c(F)c4)o3)ccc2[nH]1    18
4) O=C1CCc2cc(OCc3noc(Nc4ccc(Cl)c(Cl)c4)n3)ccc2N1    3600

1. O=c1ccc2cc(OCc3nnc(Nc4ccc(Cl)cc4F)o3)ccc2[nH]1
2. Fc1cc(Nc2nnc(CCCc3ccc4[nH]ncc4c3)o2)ccc1Cl
3. O=C1CCc2cc(OCc3nc(Cc4ccc(Cl)cc4)no3)ccc2N1
*Q* Rank descending by IC50. // respond by listing labels in the order requested
*A* 3, 1, 2

###

measured-target: hNR2B (Homo sapiens, UniProt Q05586+Q13224)
Construct: expressed in transfected cells; host or cells: Xenopus laevis oocytes, cRNA-injected
assay-info: Electrophysiology NMDA receptor experiments: two electrode voltage-clamp in Xenopus laevis oocytes, hNR2B IC50
Assay type: cell-based
condition: hNR2B IC50 (nM), voltage clamp -40 mV, 50 μM glutamate, 30 μM glycine
observed-property: IC50 (nM)
Give the value, in units of nM, as a plain number.

*Q* Query for hNR2B (Homo sapiens, UniProt Q05586+Q13224): what IC50 does the record show for O=c1ccc2cc(OCc3nnc(NCc4ccc(Cl)nc4)o3)ccc2[nH]1 [Example 24] ?
*A* 7240

###

measured-target: hNR2B (Homo sapiens, UniProt Q05586+Q13224)
Construct: expressed in transfected cells; host or cells: Xenopus laevis oocytes, cRNA-injected
assay-info: Electrophysiology NMDA receptor experiments: two electrode voltage-clamp in Xenopus laevis oocytes, hNR2B IC50
Format: cell-based
condition: hNR2B activity class, 50 μM glutamate, 30 μM glycine, read-out: Activity
pIC50: −log10 of the molar value.
observed-property: pIC50

Look over these answered cases.
1. O=c1ccc2cc(OCc3nc(Nc4cccc(Cl)c4)no3)ccc2[nH]1 [Example 161]    < 5.00
2. O=c1ccc2cc(OCc3nnc(Nc4ccc(Cl)c(OC(F)F)c4)o3)ccc2[nH]1 [Example 88]    > 6.70

*Q* # lookup: pIC50 of FC(F)Oc1ccc(Nc2noc(CCc3ccc4[nH]nc(C(F)(F)F)c4c3)n2)cc1Cl [Example 197]
*A* < 5.00

*Q* # lookup: pIC50 of O=C1CCc2cc(OCc3nnc(NCc4ccc(OC(F)(F)F)cc4)o3)ccc2N1 [Example 23]
*A* > 6.70

###

measured-target: hNR2B (Homo sapiens, UniProt Q05586+Q13224)
Construct: expressed in transfected cells; host or cells: Xenopus laevis oocytes, cRNA-injected
assay-info: Electrophysiology NMDA receptor experiments: two electrode voltage-clamp in Xenopus laevis oocytes, hNR2B IC50
Assay type: cell-based
condition: voltage clamp -40 mV, 50 μM glutamate, 30 μM glycine, read-out: hNR2B IC50
observed-property: IC50 (nM)

Look over these answered cases.
1. Oc1ccc(CCc2nnc(NCc3ccc(Cl)c(Cl)c3)o2)cc1    61
2. O=C1CCc2cc(OCc3nnc(Nc4ccc(Br)cc4)o3)ccc2N1    265
3. O=c1ccc2cc(OCc3nnc(Nc4ccc(Cl)cc4)[nH]3)ccc2[nH]1    290
4. O=C1CCc2cc(OCc3nnc(Nc4ccc(Cl)c(Cl)c4)o3)ccc2N1    57

A. O=c1ccc2cc(OCc3nnc(Nc4ccc(Cl)c(OC(F)(F)F)c4)o3)ccc2[nH]1
B. O=C1CCc2cc(OCc3nnc(Nc4ccc(Cl)c(Cl)c4)s3)ccc2N1
C. O=C1CCc2cc(OCc3csc(Nc4ccc(Cl)c(Cl)c4)n3)ccc2N1
D. O=C1CCc2cc(OCc3nnc(C(O)c4ccc(Cl)c(Cl)c4)o3)ccc2N1 (stereo not drawn)
*Q* Rank descending by IC50. // respond by listing labels in the order requested
*A* C, D, A, B

A. COc1ccc(Nc2noc(COc3ccc4[nH]c(=O)ccc4c3)n2)cc1Cl
B. O=c1ccc2cc(OCc3nnc(Nc4ccc(C(F)(F)F)cc4)o3)ccc2[nH]1
C. O=c1ccc2cc(OCc3cc(Nc4ccc(Cl)c(F)c4)no3)ccc2[nH]1
*Q* Could you please order the items by IC50, going from the lowest number to the highest? // respond by listing labels in the order requested
*A* C, B, A

###

measured-target: hNR2B (Homo sapiens, UniProt Q05586+Q13224)
Construct: expressed in transfected cells; host or cells: Xenopus laevis oocytes, cRNA-injected
assay-info: Electrophysiology NMDA receptor experiments: two electrode voltage-clamp in Xenopus laevis oocytes, hNR2B IC50
Assay type: cell-based
condition: hNR2B activity class, 50 μM glutamate, 30 μM glycine, read-out: Activity
# Lookup of reported IC50 keyed by entry

Look over these answered cases.
1. Cc1ccc(Nc2cc(COc3ccc4[nH]ncc4c3)on2)cc1F    < 200 nM
2. O=c1ccc2cc(OCc3nnc(NCc4ccc(Cl)cc4F)o3)ccc2[nH]1    201 to 1000 nM

*Q* Query for hNR2B (Homo sapiens, UniProt Q05586+Q13224): what IC50 does the record show for O=c1ccc2cc(OCc3nnc(Nc4ccc(Cl)cc4Cl)o3)ccc2[nH]1 ?
*A* > 10000 nM

*Q* Query for hNR2B (Homo sapiens, UniProt Q05586+Q13224): what IC50 does the record show for O=C1CCc2cc(OCc3nc(Nc4ccc(OC(F)(F)F)cc4)no3)ccc2N1 ?
*A* 201 to 1000 nM

*Q* Query for hNR2B (Homo sapiens, UniProt Q05586+Q13224): what IC50 does the record show for Fc1cc(Nc2noc(CCc3ccc4[nH]ncc4c3)n2)ccc1OC(F)F ?
*A* < 200 nM

*Q* Query for hNR2B (Homo sapiens, UniProt Q05586+Q13224): what IC50 does the record show for O=c1ccc2cc(OCc3nc(Nc4cc(Cl)cc(Cl)c4)no3)ccc2[nH]1 ?
*A* 1000 to 10000 nM

*Q* Query for hNR2B (Homo sapiens, UniProt Q05586+Q13224): what IC50 does the record show for O=c1ccc2cc(OCc3nnc(Nc4ccc(OC(F)(F)F)cc4)s3)ccc2[nH]1 ?
*A* < 200 nM

*Q* Query for hNR2B (Homo sapiens, UniProt Q05586+Q13224): what IC50 does the record show for O=c1ccc2cc(OCc3nnc(Nc4ccc(OC(F)(F)F)cc4)o3)ccc2[nH]1 ?
*A* < 200 nM

*Q* Query for hNR2B (Homo sapiens, UniProt Q05586+Q13224): what IC50 does the record show for O=c1ccc2cc(OCc3nnc(Nc4cccc(C(F)(F)F)c4)o3)ccc2[nH]1 ?
*A* 201 to 1000 nM

*Q* Query for hNR2B (Homo sapiens, UniProt Q05586+Q13224): what IC50 does the record show for O=c1ccc2cc(CCc3nc(Nc4ccc(Cl)c(Cl)c4)no3)ccc2[nH]1 ?
*A* 201 to 1000 nM

*Q* Query for hNR2B (Homo sapiens, UniProt Q05586+Q13224): what IC50 does the record show for O=c1ccc2cc(OCc3nnc(Nc4ccc(C(F)(F)F)c(Cl)c4)o3)ccc2[nH]1 ?
*A* < 200 nM

*Q* Query for hNR2B (Homo sapiens, UniProt Q05586+Q13224): what IC50 does the record show for Cc1cc(Nc2cc(COc3ccc4[nH]ncc4c3)on2)ccc1OC(F)F ?
*A* < 200 nM

*Q* Query for hNR2B (Homo sapiens, UniProt Q05586+Q13224): what IC50 does the record show for FC(F)Oc1ccc(Nc2noc(CCc3cccc4[nH]ncc34)n2)cc1Cl ?
*A* 1000 to 10000 nM

*Q* Query for hNR2B (Homo sapiens, UniProt Q05586+Q13224): what IC50 does the record show for O=c1ccc2cc(OCc3nnc(Nc4ccc(Cl)c(Cl)c4)s3)ccc2[nH]1 ?
*A* < 200 nM

*Q* Query for hNR2B (Homo sapiens, UniProt Q05586+Q13224): what IC50 does the record show for Oc1ccc(OCc2nnc(NCc3ccc(Cl)c(Cl)c3)o2)nn1 ?
*A* > 10000 nM

*Q* Query for hNR2B (Homo sapiens, UniProt Q05586+Q13224): what IC50 does the record show for CC1(C)Cc2cc(OCc3nnc(NCc4ccc(Cl)c(Cl)c4)o3)ccc2NC1=O ?
*A* > 10000 nM

*Q* Query for hNR2B (Homo sapiens, UniProt Q05586+Q13224): what IC50 does the record show for O=C1CCc2cc(CCc3nnc(Nc4ccc(Cl)c(Cl)c4)o3)ccc2N1 ?
*A* < 200 nM

*Q* Query for hNR2B (Homo sapiens, UniProt Q05586+Q13224): what IC50 does the record show for O=C1CCc2cc(CCc3nnc(NCc4ccc(Cl)c(Cl)c4)o3)ccc2N1 ?
*A* < 200 nM
